assay: Solubility in water of the compound of chemical formula (1); format: physicochemical; settings: amorphous free base

COMPOUND	solubility
C=CC(=O)N1CCC(Oc2cc3c(Nc4ccc(Cl)c(Cl)c4F)ncnc3cc2OC)CC1 [Reference Example]	< 1 µg/mL

---

experiment: Dynamic vapor sorption (DVS) hygroscopicity; assay type: physicochemical; conditions: relative humidity range of 10-90%, 25° C.

COMPOUND	hygroscopic degree (DVS)
C=CC(=O)N1CCC(Oc2cc3c(Nc4ccc(Cl)c(Cl)c4F)ncnc3cc2OC)CC1 [Reference Example]	1-3%
